Each item that follows carries a reported normalized growth.
# experiment-description: chemical genetic growth profiling, strain panel (AID 1159580);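 note: tested at 20 µM; growth read once vehicle control cultures reached saturation at 30 °C; 1 = growth at the plate median or of vehicle wells; lower values mean less growth of the strain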
# experimental-parameters: S. cerevisiae deletion strains, growth OD, locus YGL240W, strain doc1, hits give low values
Among all 5,500 compounds or so, about 2,000 (36%) were called active. Not shown: some 18% with an inconclusive outcome. The list shows a part of the results.

[
  {
    "compound": "O=C(O)C1CC([C@@H]2CCCCN2)CN2CCCCC12 (some centres not stated)",
    "normalized growth": 0.959
  },
  {
    "compound": "CN=C(NC#N)NCCSCc1nc(N=C(N)N)cs1",
    "normalized growth": 0.991
  },
  {
    "compound": "CCC1(c2ccccc2)C(=O)NCNC1=O",
    "normalized growth": 0.997
  },
  {
    "compound": "COc1ccc2c(c1)C1(C)CCC(=O)CC1CC2 (configuration not stated)",
    "normalized growth": 1.01
  },
  {
    "compound": "Cc1ccc2c(c1)CC[C@H]1CC(=O)CC[C@]21C",
    "normalized growth": 0.987
  },
  {
    "compound": "O=[N+]([O-])O[C@H]1CO[C@H]2[C@@H]1OC[C@H]2O[N+](=O)[O-]",
    "normalized growth": 0.988
  },
  {
    "compound": "CC(C)N(C(=O)CCl)c1ccccc1",
    "normalized growth": 0.977
  },
  {
    "compound": "CC(=O)OCC(CCn1cnc2cnc(N)nc21)COC(C)=O",
    "normalized growth": 0.966
  },
  {
    "compound": "COc1cc2c(cc1OC)C(=O)C(CC1CCN(Cc3ccccc3)CC1)C2 (configuration not stated)",
    "normalized growth": 0.994
  },
  {
    "compound": "COc1ccc([C@@H]2CC(=O)c3c(O)cc(O)cc3O2)cc1O",
    "normalized growth": 0.989
  },
  {
    "compound": "O=C1C[C@@H](c2ccc(O)cc2)Oc2cc(O)cc(O)c21",
    "normalized growth": 0.944
  },
  {
    "compound": "CCC1(c2ccc(N)cc2)CCC(=O)NC1=O (configuration not stated)",
    "normalized growth": 0.876
  },
  {
    "compound": "COc1ccc(C[C@H]2NC[C@H](O)[C@H]2OC(C)=O)cc1",
    "normalized growth": 0.994
  },
  {
    "compound": "C[C@@H](N)CO",
    "normalized growth": 1.01
  },
  {
    "compound": "CCc1nc(N)nc(N)c1-c1ccc(Cl)cc1",
    "normalized growth": 0.97
  },
  {
    "compound": "COc1cccc2c1CCC1CC(=O)CCC21C (configuration not stated)",
    "normalized growth": 0.982
  },
  {
    "compound": "COc1ccc(-c2cc(=O)c3c(O)cc(OC)c(OC)c3o2)c(OC)c1",
    "normalized growth": 1.04
  },
  {
    "compound": "CNc1ccccc1C(=O)N1CCc2c([nH]c3ccccc23)C1=O",
    "normalized growth": 1
  },
  {
    "compound": "COC(=O)C1[C@H]2C[C@H]3c4[nH]c5ccccc5c4CCN3C[C@@H]2CC[C@@H]1O (some centres not stated)",
    "normalized growth": 0.954
  },
  {
    "compound": "S=C=NCc1ccccc1",
    "normalized growth": 0.203
  },
  {
    "compound": "COC(=O)[C@@H]1C(O)CC[C@H]2CN3CCc4c([nH]c5ccccc45)[C@@H]3C[C@@H]21 (some centres not stated)",
    "normalized growth": 0.992
  },
  {
    "compound": "O=C(O)c1ccccc1OP(=O)(O)O",
    "normalized growth": 1.02
  }
]
